# target-entity: human CMKLR1 (Homo sapiens, UniProt Q99788)
# Construct: host or cells: HEK293A (Invitrogen), stably expressing human Gα15
# Sequence (Q99788 whole entry): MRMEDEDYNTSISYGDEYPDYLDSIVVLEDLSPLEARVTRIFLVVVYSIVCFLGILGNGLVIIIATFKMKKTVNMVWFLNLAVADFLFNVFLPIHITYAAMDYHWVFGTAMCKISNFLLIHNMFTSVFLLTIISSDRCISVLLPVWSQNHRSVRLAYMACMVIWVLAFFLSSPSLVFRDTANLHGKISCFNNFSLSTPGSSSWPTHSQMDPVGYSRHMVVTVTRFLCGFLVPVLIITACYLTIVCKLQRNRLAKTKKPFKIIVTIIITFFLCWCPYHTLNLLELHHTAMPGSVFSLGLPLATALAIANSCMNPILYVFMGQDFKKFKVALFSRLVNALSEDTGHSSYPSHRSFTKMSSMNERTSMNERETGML
# test-method-notes: Ca2+ mobilization (CellLux imaging) agonist assay in HEK293A cells expressing CMKLR1 and Gα15
# Type: cell-based
# reported-conditions: Ca2+ mobilization, CMKLR1; decimal comma
# Protocol: HEK293A cells (Invitrogen) expressing CMKLR1 and Gα15 were seeded at 5*10^4 cells/well in a poly-D-lysine coated 96-well black well/clear bottom plate (BD Falcon) and cultured overnight. From eighteen to twenty-four hours later, cells were loaded with FLUO4-AM (Invitrogen). […] Fluorescence data was generated in duplicate and experiments were repeated for at least three times. […] Signals were normalized to background fluorescence. […]
Square brackets hold non-standard residues; d marks the D form. Peptide text beside a SMILES is read from it.
What max response was measured for each of the following?

input: Fill in max response for record C[C@H](NC(=O)[C@H](Cc1ccccc1)NC(=O)[C@H](C)NC(=O)[C@H](Cc1ccccc1)NC(=O)[C@@H](N)CCC(N)=O)C(=O)N[C@@H](Cc1ccccc1)C(=O)N[C@@H](C)C(=O)N[C@@H](Cc1ccccc1)C(=O)N[C@H](CO)C(=O)O [compound 115] (H-QFAFAFAF[dS]-OH; N-terminus assumed)
output: 1,2 DF/F0

input: Supply reported max response belonging to this compound: CC(C)C[C@H](NC(=O)[C@H](N)Cc1ccc(O)cc1)C(=O)N1CCC[C@H]1C(=O)NCC(=O)N[C@@H](CCC(N)=O)C(=O)N[C@@H](Cc1ccc(O)cc1)C(=O)N[C@@H](C)C(=O)N[C@@H](Cc1ccc(O)cc1)C(=O)N[C@@H](CO)C(=O)O [compound 101] (H-[dY]LPGQYAYS-OH; N-terminus assumed)
output: 1,56 DF/F0

input: Report max response, nothing else, for this compound: CC(C)C[C@H](NC(=O)[C@H](N)Cc1ccccc1)C(=O)N1CCC[C@H]1C(=O)NCC(=O)N[C@@H](CCC(N)=O)C(=O)N[C@@H](Cc1ccc(O)cc1)C(=O)N[C@@H](C)C(=O)N[C@@H](Cc1ccccc1)C(=O)N[C@H](Cc1ccccc1)C(=O)O [compound 83] (H-[dF]LPGQYAF[dF]-OH; N-terminus assumed)
output: 1,82 DF/F0
